In this section, each of the compounds is paired with its reported IC50.
biological target: hMrgpMRGPRX2 (Homo sapiens); construct: expressed in transfected cells; assay: FLIPR intracellular calcium mobilization, antagonist activity in recombinant hMrgpMRGPRX2 expressing cells; assay type: cell-based; conditions: read-out: Human MrgprX2 Antagonist pIC50 (converted)
property.label: IC50

In [3]: df
Out[3]:
                                   compound  property_label      result
0  CC(C)(C)C(=O)Nc1ccc(Oc2ccc(F)c(F)c2)cn1 [Compound E033]            IC50   0.0794 µM
1  CCN(C[C@@H](O)C(F)(F)F)C(=O)Nc1cc(Oc2cncc(F)c2)ccn1 [Compound E162]            IC50   0.0191 µM
2  CC(C)N(C)C(=O)Nc1ccc(Oc2ccc(F)c(F)c2)cn1 [Compound E104]            IC50    0.126 µM
3  CC(C)C(=O)Nc1ncc(Oc2cccc(F)c2)cc1O [Compound E287]            IC50    0.794 µM
4  CC1(C)CC1C(=O)Nc1ccc(Oc2cc(F)cc(C#N)c2)cn1 (stereo not drawn) [Compound E041]            IC50    0.158 µM
5  CCN(C[C@@H](O)C(F)(F)F)C(=O)Nc1cnc(Oc2ccc(F)cc2F)cn1 [Compound E249]            IC50  0.00162 µM
6  COc1ccc(NC(=O)C2C(C)(C)C2(C)C)nc1 [Compound E212]            IC50     0.02 µM
7  CC1(C)C(C(=O)Nc2ccc(F)cn2)C1(C)C [Compound E211]            IC50  0.00126 µM
8  CCN(C[C@@H](O)C(F)(F)F)C(=O)Nc1cnc(Oc2ccc(C)cc2F)cn1 [Compound E263]            IC50   0.0245 µM

----------
biological target: hMrgpMRGPRX2 (Homo sapiens, UniProt Q96LB1); construct: expressed in transfected cells; experiment: FLIPR intracellular calcium mobilization, antagonist activity in recombinant hMrgpMRGPRX2 expressing cells; type: cell-based; details: read-out: Human MrgprX2 Antagonist pIC50 (converted)
Sequence (Q96LB1 whole entry): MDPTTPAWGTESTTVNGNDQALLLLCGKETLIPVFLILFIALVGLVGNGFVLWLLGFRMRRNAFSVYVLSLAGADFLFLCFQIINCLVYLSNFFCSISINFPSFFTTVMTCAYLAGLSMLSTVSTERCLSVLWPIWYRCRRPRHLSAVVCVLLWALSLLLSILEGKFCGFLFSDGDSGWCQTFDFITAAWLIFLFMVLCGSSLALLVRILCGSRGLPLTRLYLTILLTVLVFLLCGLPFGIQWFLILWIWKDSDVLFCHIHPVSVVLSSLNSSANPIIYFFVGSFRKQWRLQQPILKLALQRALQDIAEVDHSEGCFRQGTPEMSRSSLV
// classify(record): look up IC50 in ranges lower bin: < 80 nM; middle bin: ≥ 80 nM and < 1000 nM; upper bin: ≥ 1000 nM

>>> print(df.to_string())
                                    compound       class
 0  CC1(C)CC(=O)N(c2ccc(Oc3ccc(F)c(F)c3)cn2)C1   upper bin
 1  CCN(C[C@@H](O)C(F)(F)F)C(=O)Nc1cnc(-c2cc(F)ccc2F)cn1  middle bin
 2    CC(C)C(=O)Nc1ccc(-c2cc(F)cc(C#N)c2)cn1  middle bin
 3      O=C(Nc1ccc(Oc2ccc(F)c(F)c2)cn1)C1CC1  middle bin
 4  CCN(C[C@@H](O)C(F)(F)F)C(=O)Nc1ccc(Oc2cncc(F)c2)cn1   upper bin
 5   CC1(C)C(C(=O)Nc2ccc(-c3ccno3)cn2)C1(C)C   lower bin
 6     CC1(C(=O)Nc2ccc(Oc3ccccc3F)cn2)CCOCC1   upper bin
 7  CCN(C[C@@H](O)C(F)(F)F)C(=O)Nc1ccc(Oc2cc(F)cc(C#N)c2)cn1   upper bin
 8  CC1(C)C(C(=O)Nc2ccc(N3CCC(F)(F)C3)cn2)C1(C)C   lower bin
 9  CC1(C)C(C(=O)Nc2ccc(Oc3ccc(C#N)nc3)cn2)C1(C)C   upper bin
10  C[C@]1(C(=O)Nc2ccc(Oc3cc(F)cc(F)c3)cn2)CCCN1S(N)(=O)=O   lower bin
11  N#C[C@@H]1C[C@@H]1C(=O)Nc1ccc(Oc2ccc(F)c(F)c2)cn1   upper bin
12  CC1(C)CC1C(=O)Nc1ccc(N2CCCC2)cn1 (stereo not drawn)  middle bin
13  Cc1nc(NC(=O)C2CC2(C)C)ccc1Oc1ccc(F)c(F)c1 (stereo not drawn)  middle bin
14  CCN(C[C@@H](O)C(F)(F)F)C(=O)Nc1ccc(Oc2ccc(F)c(F)c2)cn1   lower bin
15  CC1(C)C(C(=O)Nc2cnc(Oc3cncc(F)c3)cn2)C1(C)C   lower bin
16  CCN(C[C@@H](O)C(F)(F)F)C(=O)Nc1cc(Oc2cccc(F)c2)ncn1  middle bin

----------
target: hMrgpMRGPRX2 (Homo sapiens); construct: expressed in transfected cells; assay: FLIPR intracellular calcium mobilization, antagonist activity in recombinant hMrgpMRGPRX2 expressing cells; assay type: cell-based; details: read-out: Human MrgprX2 Antagonist pIC50 (converted)
Listed here: items and their measured log10(IC50).
property.label: log10(IC50) (log10 of the value in nM)

In [3]: df
Out[3]:
                                    molecule                tested_system  property_label  measured_number
 0  CC1(C)C(C(=O)Nc2ccc(Oc3cn[nH]c3)cn2)C1(C)C [Compound E074]  hMrgpMRGPRX2 (Homo sapiens)     log10(IC50)             2.41
 1  CC(C)(C#N)CC(=O)Nc1ccc(Oc2ccc(F)c(F)c2)cn1 [Compound E069]  hMrgpMRGPRX2 (Homo sapiens)     log10(IC50)             3.28
 2  CCN(C[C@@H](O)C(F)(F)F)C(=O)Nc1cnc(Oc2ccc(F)cc2C#N)cn1 [Compound E254]  hMrgpMRGPRX2 (Homo sapiens)     log10(IC50)             1.49
 3  CN(C[C@@](C)(O)C(F)(F)F)C(=O)Nc1ccc(Oc2ccc(F)c(F)c2)cn1 [Compound E139]  hMrgpMRGPRX2 (Homo sapiens)     log10(IC50)             1.18
 4  CCN(C[C@@H](O)C(F)(F)F)C(=O)Nc1cc(Oc2ccc(C#N)cc2)ccn1 [Compound E157]  hMrgpMRGPRX2 (Homo sapiens)     log10(IC50)             3.20
 5  CCN(C[C@@H](O)C(F)(F)F)C(=O)Nc1cc(Oc2ccccc2F)ccn1 [Compound E151]  hMrgpMRGPRX2 (Homo sapiens)     log10(IC50)             0.56
 6  CCN(C[C@@H](O)C(F)(F)F)C(=O)Nc1cnc(Oc2ccc(Cl)cc2F)cn1 [Compound E257]  hMrgpMRGPRX2 (Homo sapiens)     log10(IC50)             1.17
 7  CCN(C[C@@H](O)C(F)(F)F)C(=O)Nc1cnc(Oc2ccccc2F)cn1 [Compound E248]  hMrgpMRGPRX2 (Homo sapiens)     log10(IC50)             0.93
 8  CC1(C)C(C(=O)Nc2ccc(Oc3ccnc(F)c3)cn2)C1(C)C [Compound E060]  hMrgpMRGPRX2 (Homo sapiens)     log10(IC50)             0.50
 9  O=C(Nc1ccc(Oc2cc(F)cc(F)c2)cn1)N1CCC[C@@H]1CO [Compound E132]  hMrgpMRGPRX2 (Homo sapiens)     log10(IC50)             2.76
10  CC1(C)CC1C(=O)Nc1cnc(-c2cc(F)ccc2F)cn1 (stereo not drawn) [Compound E226]  hMrgpMRGPRX2 (Homo sapiens)     log10(IC50)             1.54
11  CC(C)(O)COc1ccc(NC(=O)C2C(C)(C)C2(C)C)nc1 [Compound E080]  hMrgpMRGPRX2 (Homo sapiens)     log10(IC50)             3.64
12  CCN(C[C@@H](O)C(F)(F)F)C(=O)Nc1cc(Oc2ccc(F)cc2F)ccn1 [Compound E159]  hMrgpMRGPRX2 (Homo sapiens)     log10(IC50)             1.15
13  CC1(C)C(C(=O)Nc2cnc(-c3cc(F)cc(F)c3)cn2)C1(C)C [Compound E227]  hMrgpMRGPRX2 (Homo sapiens)     log10(IC50)             1.53
14  CC(C)C(=O)Nc1ccc(C2CCCC2)cn1 [Compound E177]  hMrgpMRGPRX2 (Homo sapiens)     log10(IC50)             3.80
15  CC1(C)C(C(=O)Nc2cnc(Oc3ccc(F)c(F)c3)cn2)C1(C)C [Compound E224]  hMrgpMRGPRX2 (Homo sapiens)     log10(IC50)             0.60
16  CC(C)C(=O)Nc1ccc(-c2cc(F)cc(F)c2)cn1 [Compound E173]  hMrgpMRGPRX2 (Homo sapiens)     log10(IC50)             1.50
17  CC1(C)C[C@H]1C(=O)Nc1ccc(Oc2ccc(F)c(F)c2)cn1 (single isomer, unassigned) [Compound E078]  hMrgpMRGPRX2 (Homo sapiens)     log10(IC50)             0.90

----------
Molecular target: hMrgpMRGPRX2 (Homo sapiens)
Construct: expressed in transfected cells
Test: FLIPR intracellular calcium mobilization, antagonist activity in recombinant hMrgpMRGPRX2 expressing cells
Format: cell-based
Settings: read-out: Human MrgprX2 Antagonist pIC50 (converted)
Excerpt: Potent and selective hMrgpMRGPRX2 compounds have been generated from compounds identified during a high throughput screening (HTS) campaign and followed up with cycles of structure activity based medicinal chemistry efforts. […] The assays used to determine potencies are functional read-out looking at intracellular calcium mobilization using the FLIPR™ technology. […]
property.label: IC50 (nM)

                                   compound  measured_number
0  C[C@H](C(=O)Nc1ccccn1)c1ccccc1 [Compound E209]             2510
1  CC1(C)C(C(=O)Nc2ccc(-c3ncco3)cn2)C1(C)C [Compound E198]             33.9
2  CC1(C)C(C(=O)Nc2ccc(Oc3cccnc3)cn2)C1(C)C [Compound E066]             30.9
3  CC1(C)C(C(=O)Nc2ccc(-c3cnco3)cn2)C1(C)C [Compound E273]              661
4  CCN(C[C@@H](O)C(F)(F)F)C(=O)Nc1cnc(Oc2cc(F)cc(F)c2)cn1 [Compound E236]             31.6
